# PROTOCOL DESCRIPTION: Quantitative highthroughput screen to assess conditional lethalithy of P12 Ichikawa cells grown in RPMI1640 with dialyzed fetal bovine serum (RPMI+ds) (AID 1963880); further: nearly all actives have a fitted effect of over 35% in size;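 on viability: 100% = DMSO wells and 0% = empty wells on each plate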
# STUDY CONDITIONS: ATP luminescence, 48 h; P12-Ichikawa viability; series mostly up to 45.8 µM
Records with an inconclusive call do not appear. Activity calls are given as the source filed them. The call rests on the fitted dose curve; in most records, active means well fitted cell-killing curve with a large enough effect; inconclusive means small, poorly fitted or top-dose-only effect; inactive means flat fitted curve, though single readings scatter.
Valid outcomes are listed here; reply with one: active, inactive

Take a look at these entries with their results.
>>> df
                               given_smiles  answer_label
0                  N=c1nc(N2CCCCC2)cc(N)n1O      inactive
1  CN(C)c1ccc(-c2nc3ncc(Cl)c(N4CCN(CC(=O)Nc5nccs5)CC4)c3[nH]2)cc1      inactive

Next:
Task: Test call for this molecule, please: `C[C@@]1(c2cc(-c3cncnc3)c(F)cc2F)CCSC(N)=N1`
Output: active

---

# PROTOCOL DESCRIPTION: Quantitative highthroughput screen to assess conditional lethalithy of P12 Ichikawa cells grown in RPMI1640 with untreated serum (RPMI+s) (AID 1963881); further: nearly all actives have a fitted effect of over 35% in size;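 on viability: 100% = DMSO wells and 0% = empty wells without cells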
# STUDY CONDITIONS: ATP luminescence, 48 h; viability; series mostly up to 45.8 µM
Inconclusive results are not listed. Active and inactive are the calls of the source. The call rests on the fitted dose curve; in most records, active means well fitted cell-killing curve with a large enough effect; inconclusive means small, poorly fitted or top-dose-only effect; inactive means flat fitted curve, though single readings scatter.
Could you please pick one outcome from this set? class 1 = active, class 0 = inactive

MOLECULE	ANSWER LABEL
O=C(O)c1cc(=O)[nH]c(=O)[nH]1	class 0
CC[C@@H](C)[C@H](NC(=O)[C@H](CC1CCCCC1)NC(=O)c1ccno1)C(=O)N1CCC2(CCc3ccccc32)CC1	class 0
C[C@@H]1C(=O)O[C@H]2CC34[C@H]5C[C@@H](C(C)(C)C)C36[C@H](OC(=O)[C@@H]6O)O[C@@]4(C(=O)O5)[C@]21O (stereo not given in full)	class 0

Task: Query: recorded result category for `O=C(NNC(=O)c1ccc(CNS(=O)(=O)c2ccc(F)c(Cl)c2)cc1)c1ccccc1` in this test
Output: class 0

Task: For CC1COc2c(N3CCN(C)CC3)c(F)cc3c(=O)c(C(=O)O)cn1c23 (stereo not given) , which call appears in the assay record?
Output: class 0

Task: Entry `OC[C@H]1O[C@@H](OCCc2ccc(O)cc2)[C@H](O)[C@@H](O)[C@H]1O` : call = ?
Output: class 0

Task: What was the test verdict on `C=CCc1cc(OC)c(O)c(C(=O)NCCO)c1` ?
Output: class 0

Task: // param item: `COc1cc(CNC(=O)CCCCC=CC(C)C)ccc1O` ; yields the recorded call
Output: class 1

Task: Which outcome was assigned to `Clc1ccc(Nc2nnc(Cc3ccncc3)c3ccccc23)cc1` in this test?
Output: class 0

Task: I would be grateful if you could indicate the recorded call for `COC(=O)[C@@H]1[C@H]2C[C@@H]3c4[nH]c5ccccc5c4CCN3C[C@@H]2CC[C@@H]1O` .
Output: class 1

---

# PROTOCOL DESCRIPTION: Quantitative highthroughput screen to assess conditional lethalithy of P12 Ichikawa cells grown in RPMI1640 with dialyzed fetal bovine serum (RPMI+ds) (AID 1963880); further: nearly all actives have a fitted effect of over 35% in size;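 on viability: 100% = DMSO wells and 0% = empty wells on each plate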
# STUDY CONDITIONS: ATP luminescence, 48 h; P12-Ichikawa viability; series mostly up to 45.8 µM
Inconclusive results are not listed. Calls of active or inactive are those of the source. Calls follow the shape of the dose curve; as a rule, active = well fitted cell-killing curve with a large enough effect; inconclusive = small, poorly fitted or top-dose-only effect; inactive = flat fitted curve, though single readings scatter.
The reply should name one outcome from class 1 for active, class 0 for inactive

COMPOUND	ANSWER LABEL
CC1(O)CC(c2nc(-c3ccc4ccc(-c5ccccc5)nc4c3)c3c(N)nccn23)C1 (configuration not stated)	class 1
CC1(C)O[C@H]2C[C@@H]3[C@H]4CCC5=CC(=O)C=C[C@]5(C)[C@@]4(F)[C@@H](O)C[C@]3(C)[C@]2(C(=O)CO)O1	class 1
CC[C@H](C)C(=O)O[C@H]1C[C@H](O)C=C2C=C[C@H](C)[C@H](CC[C@@H](O)C[C@@H](O)CC(=O)O)[C@H]21	class 0

Below: the item to evaluate.
Task: Fill in: this test's call for `CNC(=O)c1cc(COc2nnc(Nc3ccc(Cl)cc3)c3ccoc23)ccn1` is ___
Output: class 0

---

# PROTOCOL DESCRIPTION: Cellular viability qHTS for adrenocortical cancer (ACC) cell line NCI-H295R (AID 1963990); further: nearly all actives have a fitted effect of over 60% in size; further: potency means the concentration at half of the fitted maximal effect
# STUDY CONDITIONS: CellTiter-Glo ATP luminescence, 48 h; series mostly up to 46.1 µM
# Excerpt: PI: Naris Nilubol, MD Surgical Oncology Program, National Cancer Institute (NCI) National Institute of Health (NIH), Bethesda, Maryland Adrenocortical cancer (ACC) is a rare malignancy with poor survival outcomes and few treatment options. Currently, mitotane is the only FDA-approved therapy for ACC. […] Through a quantitative high-throughput drug screen (qHTS), we identified auranofin (AF), a thioredoxin reductase (TXNRD) inhibitor, as a promising candidate drug. […]
Inconclusive results are not listed. Activity calls are given as the source filed them. Calls come from the whole dose curve; as a rule, active = well fitted cell-killing curve with a large enough effect; inconclusive = small, poorly fitted or top-dose-only effect; inactive = flat fitted curve, though single readings scatter.
MEASUREMENT TYPE: Potency

                               given_smiles            result
0  C[C@H](Nc1nc(N[C@H](C)C(F)(F)F)nc(-c2cccc(Cl)n2)n1)C(F)(F)F          inactive
1  O=C(Nc1cccnn1)N1CCC(=Cc2cccc(Oc3ccc(C(F)(F)F)cn3)c2)CC1  15.8 µM (active)
2  O=c1ncccn1[C@@H]1O[C@H](CO)[C@@H](O)[C@H]1O          inactive

---

# PROTOCOL DESCRIPTION: Viability qHTS for spleen associated tyrosine kinase inhibitor (SYKi) drug resistant MV4-11 cells (AID 1963824); further: nearly all actives have a fitted effect of over 35% in size
# STUDY CONDITIONS: SYKi-resistant MV4-11 viability, CellTiter-Glo, 72 h; series mostly up to 45 µM
Results filed as inconclusive are left out. Active and inactive are the calls of the source. Calls come from the whole dose curve; as a rule, active = well fitted cell-killing curve with a large enough effect; inconclusive = small, poorly fitted or top-dose-only effect, or effect the other way; inactive = no such curve, though single readings can be large or run the other way.
Your reply should match one of these outcome classes. active, inactive

Task: Test call for this compound, please: `COc1cc(C)c(C(=O)O[C@@H]2[C@H](O)[C@@H](CO)O[C@H]2n2ccc(=O)[nH]c2=O)c(OC)c1`
Output: inactive

Task: Which result was noted for this compound in the test: `O=C(NCCCNc1nc(Nc2cccc(CN3CCOCC3)c2)ncc1C1CC1)C1CCC1`
Output: active

Task: Which outcome did this test record for the compound `CN(C)C(=O)COC(=O)c1cc(-c2ccc(C3CCNCC3)cc2)c2ccc(-c3ccc(C(F)(F)F)cc3)cc2c1` ?
Output: active

Task: In this assay, the call recorded for `Cc1cc(-c2cc(O)ccc2Cl)cc2nnc(Nc3ccc(OCCN4CCCC4)cc3)nc12` was what?
Output: active

Task: In this assay, the call recorded for `C=C(C)C(=O)O[C@H]1[C@H]2C(=C)C(=O)O[C@@H]2C[C@@H](C)[C@@H]2O[C@@H]2C(=O)[C@](C)(O)[C@@H]1OC(C)=O` was what?
Output: active

---

# PROTOCOL DESCRIPTION: Quantitative highthroughput screen to assess conditional lethalithy of SEM cells grown in RPMI1640 with unreated serum (RPMI+s) (AID 1963883); further: nearly all actives have a fitted effect of over 35% in size; further: potency means the concentration at half of the fitted maximal effect;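 on viability: 100% = DMSO wells and 0% = empty wells without cells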
# STUDY CONDITIONS: SEM B-ALL cells, CellTiter-Glo viability, 48 h; series mostly up to 45.8 µM
Results filed as inconclusive are left out. Calls of active or inactive are those of the source. Calls follow the shape of the dose curve; as a rule, active = well fitted cell-killing curve with a large enough effect; inconclusive = small, poorly fitted or top-dose-only effect, or effect the other way; inactive = no such curve, though single readings can be large or run the other way.
MEASUREMENT TYPE: Potency

Recorded results for 8 molecules are shown here.
MOLECULE	Potency
COCCOc1ccc2c(c1)ncn2-c1ccc2cccc(N3CCC(N)CC3)c2n1	93.5 nM (active)
COc1c(OCCCN2CCOCC2)ccc2c3n(c(=NC(=O)c4cnc(N)nc4)nc12)CCN3	2040 nM (active)
CNC[C@H](O)c1ccc(O)c(O)c1	inactive
O=C(Nc1c(Cl)cncc1Cl)c1ccc(OC(F)F)c(OCC2CC2)c1	inactive
O=C(CCCN1CCC(O)(c2ccc(Cl)cc2)CC1)c1ccc(F)cc1	inactive
Cn1cc(CNCC2CCN(c3ncc(C(=O)NO)cn3)CC2)c2ccccc21	148 nM (active)
CC[C@]12C=CCN3CC[C@@]4(c5cc([C@@]6(C(=O)OC)C[C@H]7C[C@@H](C(C)(F)F)CN(Cc8c6[nH]c6ccccc86)C7)c(OC)cc5N(C)[C@H]4[C@@](O)(C(=O)OC)[C@H]1OC(C)=O)[C@@H]32	18.7 nM (active)
CS(=O)(=O)Oc1ccc2c(NC(N)=O)c(C(=O)c3ccc(Cl)cc3Cl)oc2c1	inactive

// Potency value for `Cc1cc(Nc2cc(N3CCN(C)CC3)nc(Sc3ccc(NC(=O)C4CC4)cc3)n2)n[nH]1` : 372 nM (active)

The recorded Potency for entry CCCCCCCCCCCC(CC1OC(=O)C1CCCCCC)OC(=O)C(CC(C)C)NC=O (configuration not stated) equals 5900 nM (active)

Potency reading for OC(CN1CCN(c2cccc(Cl)c2)CC1)C(c1ccccc1)c1ccccc1 (configuration not stated) : 148 nM (active)

The reported Potency of the molecule CC(CCc1ccc(O)cc1)NCCc1ccc(O)c(O)c1 (configuration not stated) was 20900 nM (active)
